# System: SF-295
# experimental-protocol: NCI tumour cell line growth inhibition, 48 h
The source made the active and inactive calls. Rule as the data show it: active = GI50 up to about 1.1 µM and inactive = higher.
GI50 values, listed per item
observable: GI50

O=C(CNc1cccc([N+](=O)[O-])c1)Nn1c(-c2ccccc2)nc2ccccc2c1=O :: 1.58 µM (inactive)
CO[C@@](c1ccccc1)(c1nc(C#N)c(N)o1)C(F)(F)F :: > 100 µM (inactive)
CN(C)CCCNCc1cccc2ccccc12 :: > 100 µM (inactive)
CCN(CC)CC1c2ccccc2C(CNc2ccccc2)N1C (stereo unspecified) :: > 100 µM (inactive)
OC(C/C(=N\N1CCCCC1)c1cccs1)(C(F)(F)F)C(F)(F)F :: > 10 µM (inactive)
COc1ccc(OC)c(NC(=O)C(=O)C(C(=O)c2ccccc2F)C2OC(=O)c3ccccc32)c1 (stereo unspecified) :: 45.8 µM (inactive)
